Data provenance is ChEMBL document CHEMBL1136676.

# ASSAY EXPLANATION: Inhibition of protein phosphatase (PP2A) at 250 uM
Assignment: determine reported inhibition for the given molecules.
# value in %; strip the unit string

**Q:** Given the entry "C=C(CC[C@H](O)[C@@]1(C)CC[C@H](C(C)(C)O)O1)[C@H]1CC[C@H]2O[C@@H]([C@]3(C)CC[C@](OC)(C(C)C)O3)CC[C@]2(C)O1" , report its measured inhibition.
**A:** 55.4

**Q:** // repeat for "C=C([C@@H](O)C[C@H](O)[C@@]1(C)CC[C@H](C(C)(C)O)O1)[C@H]1CC[C@H]2O[C@@H]([C@]3(C)CC[C@@H](Br)C(C)(C)O3)CC[C@]2(C)O1" and report
**A:** 100

**Q:** What do you get for "C/C(=C/C[C@@H](O)[C@]1(C)CC[C@H](C(C)(C)O)O1)[C@H]1CC[C@H]2O[C@@H]([C@]3(C)CC[C@@H](Br)C(C)(C)O3)CC[C@]2(C)O1" ?
**A:** 59.8

**Q:** Let us now turn to "C=C(CC[C@H]1O[C@@H](C(C)(C)O)CC[C@]1(C)O)[C@H]1CC[C@H]2O[C@@H]([C@]3(C)CC[C@@H](Br)C(C)(C)O3)CC[C@]2(C)O1"
**A:** 81.3

**Q:** Consider next the molecule "C=C(CC[C@H](O)[C@@]1(C)CC[C@H](C(C)(C)O)O1)[C@H]1CC[C@H]2O[C@@H]([C@]3(C)CC[C@@H](C(C)(C)OC)O3)CC[C@]2(C)O1" in the same way.
**A:** 57.2

**Q:** Same lookup for "C=C(CC[C@H](O)[C@@]1(C)CC[C@H](C(C)(C)O)O1)[C@H]1CC[C@H]2O[C@@H]([C@]3(C)CCC(=O)O3)CC[C@]2(C)O1" , please.
**A:** 63.2
